# Target entity: 5-hydroxytryptamine receptor 1E (Homo sapiens) (UniProt P28566)
# Sequence (P28566 whole entry, looked up): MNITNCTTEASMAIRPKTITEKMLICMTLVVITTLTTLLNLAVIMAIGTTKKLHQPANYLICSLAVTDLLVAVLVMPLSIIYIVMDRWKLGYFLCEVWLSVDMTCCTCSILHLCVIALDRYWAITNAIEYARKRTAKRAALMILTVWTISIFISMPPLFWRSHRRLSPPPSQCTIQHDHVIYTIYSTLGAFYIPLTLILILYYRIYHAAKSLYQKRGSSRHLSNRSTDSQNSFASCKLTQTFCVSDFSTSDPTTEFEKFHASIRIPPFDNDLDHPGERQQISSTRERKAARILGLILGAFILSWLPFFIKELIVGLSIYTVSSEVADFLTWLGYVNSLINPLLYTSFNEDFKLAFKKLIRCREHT
# Protocol notes: 5-HT1E receptor agonist potency, dose response, cell-based (AID 726)
# Measurement setup: CHO 5-HT1E/Ga15 NFAT-bla, FRET reporter
Active and inactive are the calls of the source.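 The calls were made as follows: active = EC50 at or below 10 µM, fitted or read by hand from inhibition at single concentrations; inactive = EC50 above 10 µM.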

Compound | EC50
O=S(=O)(c1cccc(Cl)c1)N1CCCC1 | > 50 µM (inactive)
O=C(NCc1ccccc1)NC1(C(=O)N2CCCC2)CCCCC1 | > 50 µM (inactive)
CC(=O)Nc1ccc(S(=O)(=O)N(C)c2ccc(O)cc2)cc1 | > 50 µM (inactive)
CCOC(=O)C1=C(C)NC(=O)NC1c1ccc(OCC(=O)Nc2ccccc2)c(OC)c1 (stereo unspecified) | > 50 µM (inactive)
CNCCc1c[nH]c2ccccc12 | 0.105 µM
Cc1[nH]c2ccccc2c1C1=CCNCC1 | 0.194 µM

---

# Target entity: 5-hydroxytryptamine receptor 1E (Homo sapiens) (UniProt P28566)
# Protocol notes: 5-HT1E receptor agonist potency, dose response, cell-based (AID 726)
# Measurement setup: CHO 5-HT1E/Ga15 NFAT-bla, FRET reporter
Activity calls are given as the source filed them.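 The calls were made as follows: active = EC50 at or below 10 µM, fitted or read by hand from inhibition at single concentrations; inactive = EC50 above 10 µM.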
Classes used: 1 (yes) for active, 0 (no) for inactive

Compound | Target entity | Class name
CC1CN(c2nnnn2-c2ccccc2)CC(C)O1 (stereo not drawn) | 5-hydroxytryptamine receptor 1E (Homo sapiens) (UniProt P28566) | 0 (no)
CC[C@@H](CO)NC(=O)[C@@H]1C=C2c3cccc4c3c(cn4C)C[C@H]2N(C)C1 | 5-hydroxytryptamine receptor 1E (Homo sapiens) (UniProt P28566) | 1 (yes)
Cc1c(CN2CCN(c3cccc(C(F)(F)F)c3)CC2)c(=O)n(-c2ccccc2)n1C | 5-hydroxytryptamine receptor 1E (Homo sapiens) (UniProt P28566) | 1 (yes)
O=C(O)C1CCCCC1C(=O)NCCc1c[nH]c2ccccc12 (stereo not drawn) | 5-hydroxytryptamine receptor 1E (Homo sapiens) (UniProt P28566) | 1 (yes)
O=C(Nc1cccc(-c2cn3ccsc3n2)c1)c1ccccc1 | 5-hydroxytryptamine receptor 1E (Homo sapiens) (UniProt P28566) | 0 (no)
Cc1cccc(N2CCN(C(=O)Cc3c(C(=O)O)[nH]c4ccc(Cl)cc34)CC2)c1C | 5-hydroxytryptamine receptor 1E (Homo sapiens) (UniProt P28566) | 0 (no)
CN1CC=C(c2c[nH]c3ccccc23)CC1 | 5-hydroxytryptamine receptor 1E (Homo sapiens) (UniProt P28566) | 1 (yes)
CCN(CC)c1nc(N2CCOCC2)c(C#N)c2c1CN(C)CC2 | 5-hydroxytryptamine receptor 1E (Homo sapiens) (UniProt P28566) | 1 (yes)
CN1CCN2c3ccccc3Cc3ccccc3C2C1 (stereo not drawn) | 5-hydroxytryptamine receptor 1E (Homo sapiens) (UniProt P28566) | 1 (yes)
CCOC(=O)c1c(C)nc(-c2ccccc2)nc1NC(=O)CC | 5-hydroxytryptamine receptor 1E (Homo sapiens) (UniProt P28566) | 0 (no)
CCOC(=O)c1oc2ccccc2c1NC(=O)c1cc(OC)cc(OC)c1 | 5-hydroxytryptamine receptor 1E (Homo sapiens) (UniProt P28566) | 0 (no)
COc1ccc(N(CC(=O)NC2CCCC2)C(=O)Cn2nnc(-c3ccc(C)cc3)n2)cc1OC | 5-hydroxytryptamine receptor 1E (Homo sapiens) (UniProt P28566) | 0 (no)
Cn1cc(/C(Cc2ccccc2)=N\O)c2ccccc21 | 5-hydroxytryptamine receptor 1E (Homo sapiens) (UniProt P28566) | 0 (no)
